- measured-target: Δ49N-hChoKα (Homo sapiens, UniProt P35790)
- Construct: cDNA fragment 362-1534, corresponding to aminoacids 50 457; GST (N, cleaved yes); PreScission Protease recognition site (N); made in house; host or cells: Escherichia coli BL21pLysS (DE3)
- Sequence (P35790 50-439 isoform P35790-2): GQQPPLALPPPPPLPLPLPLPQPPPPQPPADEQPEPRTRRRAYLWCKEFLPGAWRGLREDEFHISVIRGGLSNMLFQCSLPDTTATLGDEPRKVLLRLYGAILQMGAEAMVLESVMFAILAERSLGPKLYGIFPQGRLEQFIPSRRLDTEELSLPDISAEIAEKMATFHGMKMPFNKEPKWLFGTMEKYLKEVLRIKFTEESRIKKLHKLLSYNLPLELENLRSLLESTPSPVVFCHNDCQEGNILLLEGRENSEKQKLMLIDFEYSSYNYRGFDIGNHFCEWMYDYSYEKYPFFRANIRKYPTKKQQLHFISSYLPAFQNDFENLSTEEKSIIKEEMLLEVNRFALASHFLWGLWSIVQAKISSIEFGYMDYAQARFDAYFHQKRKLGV
- assay-procedure: Biochemical kinase inhibition assay (Kinase-Glo luminescent) on Δ49N-hChoKα
- condition-set: recombinant Δ49N-hChoKα 2.2 nM, ATP 5 μM, choline 5 μM, 60 min rt; read-out: ChoKα IC50
assay-readout: log10(IC50) (log10 of the value in nM)
Annotation: log10 of IC50, nM basis.

Guide cases for log10(IC50), answers given:
line-notation	log10(IC50)
CNc1ncc2c(n1)-c1[nH]nc(C(=O)Nc3nc(CC(=O)N4CCC(N5CCC(C)CC5)CC4)cs3)c1C(C)(C)C2	1.04
CCOC(=O)Cc1ccc(NC(=O)c2n[nH]c3c2C(C)(C)Cc2cnc(N)nc2-3)cc1	2.30
CC1(C)Cc2cnc(N)nc2-c2[nH]nc(C(=O)Nc3ncc(CC(=O)O)s3)c21	2.43

Input: Hello, please tell me recorded log10(IC50) for this one: CC1(C)Cc2cnc(N)nc2-c2[nH]nc(C(=O)Nc3ccc(C(=O)N4CCC(N5CCOC5=O)CC4)cc3)c21
Output: 2.32

Input: Return the recorded log10(IC50) value; entry: CC1(C)Cc2cnc(N)nc2-c2[nH]nc(C(=O)Nc3cccc(C(=O)NC4CCCCC4)c3)c21
Output: 2.40

Input: Fill in log10(IC50) for record CC1(C)Cc2cnc(N)nc2-c2[nH]nc(C(=O)Nc3nc(COC4CCN(C5CCC(F)(F)CC5)CC4)cs3)c21
Output: 1.49

Input: Could you please provide reported log10(IC50) for CN(C)CCCNC(=O)Cc1csc(NC(=O)c2n[nH]c3c2C(C)(C)Cc2cnc(N)nc2-3)n1 ? Thanks!
Output: 1.18
